Test Method Notes: Alpha-elimination half-life in Beagle dogs after intravenous administration at a dose of 1 mg/kg
Assay Conditions: dog, in vivo
Quantity Name: half-life (min)
Write the answer as a number in min, unit excluded.

## Task I have this compound here, CN(C1CCCCC1)[C@@H](CC(=O)O)C(=O)N1CCCC[C@H]1CCOC1CCN(C(=N)N)CC1 , and I need its recorded half-life.
## Result 9.6

###

Tested On: Coagulation factor X (Bos taurus)
Sequence (P00743 41-180 limits assumed): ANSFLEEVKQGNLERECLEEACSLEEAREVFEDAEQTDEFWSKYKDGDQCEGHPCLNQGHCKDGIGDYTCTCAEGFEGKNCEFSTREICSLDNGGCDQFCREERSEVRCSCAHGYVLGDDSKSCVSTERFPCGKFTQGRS
Sequence (P00743 234-492 limits assumed): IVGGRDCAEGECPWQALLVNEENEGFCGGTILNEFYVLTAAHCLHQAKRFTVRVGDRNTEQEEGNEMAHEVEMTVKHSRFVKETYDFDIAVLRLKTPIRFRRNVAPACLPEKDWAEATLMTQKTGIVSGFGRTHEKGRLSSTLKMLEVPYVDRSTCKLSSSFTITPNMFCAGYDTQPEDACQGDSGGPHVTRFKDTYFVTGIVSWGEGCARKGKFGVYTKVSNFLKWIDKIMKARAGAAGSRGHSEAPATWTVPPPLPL
Test Method Notes: Inhibitory effect on Coagulation factor Xa (FXa) from bovine plasma
Quantity Name: Ki (µM)
Write the answer as a number in µM, unit excluded.

## Task I have this compound here, CN(C1CCCCC1)[C@@H](CC(=O)O)C(=O)N1CCCC[C@H]1CCOC1CCN(C(=N)N)CC1 , and I need its recorded Ki.
## Result 4.97

###

Test Method Notes: Oral bioavailability in rat (Sprague-Dawley) (male) (dose 50 mg/kg p.o.)
Type: ADME, organism-based
Assay Conditions: in vivo
Examples of compounds with documented bioavailability follow.
Write the answer as a number in %, unit excluded.

| Smiles Record | Quantity Name | Units | Measurement |
| --- | --- | --- | --- |
| CC1=CCN(C(=O)[C@H](Cc2cccc(C(=N)N)c2)NS(=O)(=O)c2ccc3c(c2)CCN(C)CC3)[C@@H](C(=O)O)C1 | bioavailability | % | 16 |

Could you now consider this next compound?
## Task I have this compound here, CN(C1CCCCC1)[C@@H](CC(=O)O)C(=O)N1CCCC[C@H]1CCOC1CCN(C(=N)N)CC1 , and I need its recorded bioavailability.
## Result 2

###

Test Method Notes: Plasma clearance in Male Sprague-Dawley rats after intravenous administration at a dose of 10 mg/kg
Type: ADME, organism-based
Design: dose 10 mg/kg, route intravenous
Assay Conditions: rat
Quantity Name: clearance (mL/min/kg)
Write the answer as a number in mL/min/kg, unit excluded.

| Smiles Record | Units | Measurement |
| --- | --- | --- |
| CC1=CCN(C(=O)[C@H](Cc2cccc(C(=N)N)c2)NS(=O)(=O)c2ccc3c(c2)CCN(C)CC3)[C@@H](C(=O)O)C1 | mL/min/kg | 11 |

## Task I have this compound here, CN(C1CCCCC1)[C@@H](CC(=O)O)C(=O)N1CCCC[C@H]1CCOC1CCN(C(=N)N)CC1 , and I need its recorded clearance.
## Result 21.2

###

Test Method Notes: Beta-elimination half-life in Beagle dogs after intravenous administration at a dose of 1 mg/kg
Assay Conditions: dog, in vivo
Quantity Name: half-life (h)
Write the answer as a number in h, unit excluded.

## Task I have this compound here, CN(C1CCCCC1)[C@@H](CC(=O)O)C(=O)N1CCCC[C@H]1CCOC1CCN(C(=N)N)CC1 , and I need its recorded half-life.
## Result 1

###

Test Method Notes: Alpha-elimination half-life in Male Sprague-Dawley rats after intravenous administration at a dose of 10 mg/kg
Type: ADME, organism-based
Design: dose 10 mg/kg, route intravenous
Assay Conditions: rat, in vivo
Quantity Name: half-life
Please don't drop the unit; write it after the number.

## Task I have this compound here, CN(C1CCCCC1)[C@@H](CC(=O)O)C(=O)N1CCCC[C@H]1CCOC1CCN(C(=N)N)CC1 , and I need its recorded half-life.
## Result 7.2 min

###

Listed here: molecules with reported pKi for Prothrombin (Homo sapiens, UniProt P00734).
pKi field: float, defined as -log10 of concentration (mol/L).

Please review the entries below; each comes with its answer.
| Molecule | pKi |
| --- | --- |
| CN(C1CCC=CCC1)[C@@H](CC(=O)O)C(=O)N1CCCC[C@H]1CCOC1CCN(C(=N)N)CC1 | 9.10 |
| N=C(N)N1CCC(OCCC2CCCCN2C(=O)[C@H](CC(=O)O)NC2CCCC2)CC1 (stereo partly specified) | 7.49 |
| CN1CCC(N[C@@H](CC(=O)O)C(=O)N2CCCC[C@H]2CCOC2CCN(C(=N)N)CC2)CC1 | 7.05 |

Could you now consider this next molecule?
## Task I have this molecule here, CCC(CC)N[C@@H](CC(=O)O)C(=O)N1CCCC[C@H]1CCOC1CCN(C(=N)N)CC1 , and I need its recorded pKi.
## Result 8.01

###

Test Method Notes: Plasma clearance in Beagle dogs after intravenous administration at a dose of 1 mg/kg
Format: ADME, organism-based, Canis lupus familiaris
Set-up: dose 1 mg/kg, route intravenous
Assay Conditions: dog
Quantity Name: clearance (mL/min/kg)
Write the answer as a number in mL/min/kg, unit excluded.

## Task I have this molecule here, CC1=CCN(C(=O)[C@H](Cc2cccc(C(=N)N)c2)NS(=O)(=O)c2ccc3c(c2)CCN(C)CC3)[C@@H](C(=O)O)C1 , and I need its recorded clearance.
## Result 6.9

###

Examples of compounds with documented Vd follow.
Test Method Notes: Volume of distribution in Male Sprague-Dawley rats after intravenous administration at a dose of 10 mg/kg
Assay type: ADME, organism-based
Parameters: dose 10 mg/kg, route intravenous
Assay Conditions: rat, in vivo, read-out: Volume
Write the answer as a number in L/kg, unit excluded.

## Task I have this compound here, CN(C1CCCCC1)[C@@H](CC(=O)O)C(=O)N1CCCC[C@H]1CCOC1CCN(C(=N)N)CC1 , and I need its recorded Vd.
## Result 0.31

## Task I have this compound here, CC1=CCN(C(=O)[C@H](Cc2cccc(C(=N)N)c2)NS(=O)(=O)c2ccc3c(c2)CCN(C)CC3)[C@@H](C(=O)O)C1 , and I need its recorded Vd.
## Result 0.6

###

Examples of molecules with documented pKi follow.
Tested On: Serine protease 1 (Homo sapiens, UniProt P07477)
Sequence (P07477 whole entry): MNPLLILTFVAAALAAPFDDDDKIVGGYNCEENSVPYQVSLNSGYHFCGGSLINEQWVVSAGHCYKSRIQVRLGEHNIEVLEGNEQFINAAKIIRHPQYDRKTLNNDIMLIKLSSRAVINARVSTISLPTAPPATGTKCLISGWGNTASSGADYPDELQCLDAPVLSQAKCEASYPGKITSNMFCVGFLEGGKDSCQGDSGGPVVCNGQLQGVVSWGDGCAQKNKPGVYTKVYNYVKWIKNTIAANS
pKi field: float, defined as -log10 of concentration (mol/L).

| Molecule | pKi |
| --- | --- |
| N=C(N)N1CCC(OCCC2CCCCN2C(=O)[C@@H](Cc2ccccc2)NCC(=O)O)CC1 (stereo partly drawn) | 5.10 |
| N=C(N)N1CCC(OCCC2CCCCN2C(=O)[C@H](CC(=O)O)NC2CCCCCCC2)CC1 (stereo partly drawn) | 6.14 |
| N=C(N)N1CCC(OCCC2CCCCN2C(=O)[C@H](CC(=O)O)NC2CCCC2)CC1 (stereo partly drawn) | 5.30 |
| CN(C1CCCCC1)[C@@H](CC(=O)O)C(=O)N1CCCC[C@H]1CCOC1CCN(C(=N)N)CC1 | 5.71 |
| CN(C1CCCCC1)[C@@H](CCC(=O)O)C(=O)N1CCCC[C@H]1CCOC1CCN(C(=N)N)CC1 | 6.26 |
| N=C(N)c1ccc(OCC[C@H]2CCCCN2C(=O)[C@@H](CC2CCCCC2)NCC(=O)O)cc1 | 5.14 |
| CCC(CC)N[C@@H](CC(=O)O)C(=O)N1CCCC[C@H]1CCOC1CCN(C(=N)N)CC1 | 5.85 |

Could you now consider this next molecule?
## Task I have this molecule here, CCN(C1CCCCC1)[C@@H](CC(=O)O)C(=O)N1CCCCC1CCOC1CCN(C(=N)N)CC1 (stereo partly drawn) , and I need its recorded pKi.
## Result 5.30

###

Test Method Notes: Volume of distribution in Beagle dogs after intravenous administration at a dose of 1 mg/kg
Assay type: ADME, organism-based, Canis lupus familiaris
Design: dose 1 mg/kg, route intravenous
Assay Conditions: dog, in vivo, read-out: Volume
Quantity Name: Vd (L/kg)
Write the answer as a number in L/kg, unit excluded.

## Task I have this molecule here, CC1=CCN(C(=O)[C@H](Cc2cccc(C(=N)N)c2)NS(=O)(=O)c2ccc3c(c2)CCN(C)CC3)[C@@H](C(=O)O)C1 , and I need its recorded Vd.
## Result 0.53

###

Tested On: Serine protease 1 (Homo sapiens, UniProt P07477)
Quantity Name: Ki (nM)
Write the answer as a number in nM, unit excluded.

| Molecule | Units | Ki |
| --- | --- | --- |
| CN(C1CCCCCC1)[C@@H](CC(=O)O)C(=O)N1CCCC[C@H]1CCOC1CCN(C(=N)N)CC1 | nM | 810 |
| N=C(N)N1CCC(OCC[C@@H]2CCCCN2C(=O)[C@H](CC(=O)O)NC2CCCCCC2)CC1 | nM | 700 |

## Task I have this molecule here, N=C(N)N1CCC(OCCC2CCCCN2C(=O)[C@H](CC(=O)O)NCC2CCCCC2)CC1 (stereo not given in full) , and I need its recorded Ki.
## Result 1600

## Task I have this molecule here, CN(C1CCC=CCC1)[C@@H](CC(=O)O)C(=O)N1CCCC[C@H]1CCOC1CCN(C(=N)N)CC1 , and I need its recorded Ki.
## Result 1100

## Task I have this molecule here, N=C(N)N1CCC(OCCC2CCCCN2C(=O)[C@@H](CC2CCCCC2)NCC(=O)O)CC1 (stereo not given in full) , and I need its recorded Ki.
## Result 370

###

Listed here: compounds with reported log10(Ki) for Prothrombin (Homo sapiens, UniProt P00734).
Field: value | Transform: log10 | Quantity: Ki | Unit: nM

Please review the entries below; each comes with its answer.
| Compound | log10(Ki) |
| --- | --- |
| N=C(N)N1CCC(OCCC2CCCCN2C(=O)[C@@H](CC2CCCCC2)NCC(=O)O)CC1 (some centres not stated) | -0.02 |
| N=C(N)N1CCC(OCCC2CCCCN2C(=O)[C@H](CC(=O)O)NC2CCCCCCC2)CC1 (some centres not stated) | 0.11 |
| CCS(=O)(=O)N[C@H](Cc1ccccc1)C(=O)N1CCC[C@H]1C(=O)NCC1CCN(C(=N)N)CC1 | 1.18 |
| N=C(N)N1CCC(OCCC2CCCCN2C(=O)[C@@H](Cc2ccccc2)NCC(=O)O)CC1 (some centres not stated) | 2.57 |
| N=C(N)N1CCC(OCCC2CCCCN2C(=O)[C@H](CC(=O)O)NCC2CCCCC2)CC1 (some centres not stated) | 1.20 |

## Task Hello, I am looking for reported log10(Ki) with Prothrombin (Homo sapiens, UniProt P00734) for CN(C1CCCCC1)[C@@H](CCC(=O)O)C(=O)N1CCCC[C@H]1CCOC1CCN(C(=N)N)CC1 . Could you help?
## Result 0.26

## Task Hello, I am looking for reported log10(Ki) with Prothrombin (Homo sapiens, UniProt P00734) for CN(C1CCCCCC1)[C@@H](CC(=O)O)C(=O)N1CCCC[C@H]1CCOC1CCN(C(=N)N)CC1 . Could you help?
## Result -0.28
